test system: Calu-3; assay: cell viability relative to DMSO; higher = less toxic; settings: 72 h; 1 nM
I'd be grateful if you could share measured cell viability for these entries.
Numbers only, in %.

{"columns": ["compound", "cell viability [%]"],
 "data": [
  ["Cc1ccc(C(=O)Nc2ccc(Oc3cc4cnn(C)c4cc3-c3cn[nH]c3)c(F)c2)c(=O)n1-c1ccc(F)cc1", 92],
  ["COc1c(C)c2c(c(O)c1C/C=C(\\C)CCC(=O)O)C(=O)OC2 [mycophenolic-acid]", 96.3],
  ["O=C(Nc1c(-c2cccs2)nc2ccccn12)c1ccc(Cl)cc1", 106],
  ["C[C@@H](N)Cc1c[nH]c2ccc(O)cc12 [alpha-methylserotonin]", 89.6],
  ["O=C1Nc2ccc(Cl)cc2[C@@](C#CC2CC2)(C(F)(F)F)O1 [efavirenz]", 97.5]
]}

Give measured cell viability for every item shown.
1. Cc1noc2c1-c1ccccc1C(c1ccc(Cl)cc1)=N[C@H]2CC(N)=O [CPI-0610]
2. CCC[C@@]1(CCc2ccccc2)CC(O)=C([C@H](CC)c2cccc(NS(=O)(=O)c3ccc(C(F)(F)F)cn3)c2)C(=O)O1 [tipranavir]

[reply]
1: 103; 2: 107

# batch size: 2; output cell viability per entry
1. Cc1ccccc1C(OCCN(C)C)c1ccccc1 (centres undefined) [orphenadrine]
2. COc1ccc2[nH]c([S@@+]([O-])Cc3ncc(C)c(OC)c3C)nc2c1 [esomeprazole]

[reply]
[99.5, 98.3]
